# measured-on: STAT5b SH2 domain (Homo sapiens, UniProt P51692)
# Sequence (P51692 1-787): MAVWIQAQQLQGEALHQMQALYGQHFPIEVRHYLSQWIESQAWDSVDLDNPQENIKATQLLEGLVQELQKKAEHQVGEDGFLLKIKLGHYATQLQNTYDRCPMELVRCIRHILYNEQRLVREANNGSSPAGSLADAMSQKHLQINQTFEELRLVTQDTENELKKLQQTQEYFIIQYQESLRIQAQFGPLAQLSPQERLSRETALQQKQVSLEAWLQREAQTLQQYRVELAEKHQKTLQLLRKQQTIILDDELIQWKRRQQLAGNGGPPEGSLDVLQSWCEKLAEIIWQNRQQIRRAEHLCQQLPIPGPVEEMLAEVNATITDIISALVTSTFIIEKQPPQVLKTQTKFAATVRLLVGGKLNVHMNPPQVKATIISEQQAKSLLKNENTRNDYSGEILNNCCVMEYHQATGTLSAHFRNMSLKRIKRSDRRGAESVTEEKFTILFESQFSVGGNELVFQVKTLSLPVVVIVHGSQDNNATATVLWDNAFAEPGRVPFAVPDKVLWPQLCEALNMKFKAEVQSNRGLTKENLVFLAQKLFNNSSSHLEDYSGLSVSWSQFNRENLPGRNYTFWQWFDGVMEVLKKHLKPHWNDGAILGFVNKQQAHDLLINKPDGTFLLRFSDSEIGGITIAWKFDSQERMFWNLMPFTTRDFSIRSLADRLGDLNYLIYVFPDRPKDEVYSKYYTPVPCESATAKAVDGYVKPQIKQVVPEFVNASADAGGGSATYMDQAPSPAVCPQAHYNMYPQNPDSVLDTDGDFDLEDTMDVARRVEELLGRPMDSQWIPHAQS
readout-type: pIC50
Notebook: values listed as pIC50 are -log10 of the concentration (mol/L).

INPUT: Tell me its pIC50 given CC(C)(C)c1ccc2occ(C=O)c(=O)c2c1 as the entry.
OUTPUT: 4.56

* * *

// reported inhibition at 80 µM per item
# measured-on: STAT5b SH2 domain (Homo sapiens, UniProt P51692)
# Sequence (P51692 1-787): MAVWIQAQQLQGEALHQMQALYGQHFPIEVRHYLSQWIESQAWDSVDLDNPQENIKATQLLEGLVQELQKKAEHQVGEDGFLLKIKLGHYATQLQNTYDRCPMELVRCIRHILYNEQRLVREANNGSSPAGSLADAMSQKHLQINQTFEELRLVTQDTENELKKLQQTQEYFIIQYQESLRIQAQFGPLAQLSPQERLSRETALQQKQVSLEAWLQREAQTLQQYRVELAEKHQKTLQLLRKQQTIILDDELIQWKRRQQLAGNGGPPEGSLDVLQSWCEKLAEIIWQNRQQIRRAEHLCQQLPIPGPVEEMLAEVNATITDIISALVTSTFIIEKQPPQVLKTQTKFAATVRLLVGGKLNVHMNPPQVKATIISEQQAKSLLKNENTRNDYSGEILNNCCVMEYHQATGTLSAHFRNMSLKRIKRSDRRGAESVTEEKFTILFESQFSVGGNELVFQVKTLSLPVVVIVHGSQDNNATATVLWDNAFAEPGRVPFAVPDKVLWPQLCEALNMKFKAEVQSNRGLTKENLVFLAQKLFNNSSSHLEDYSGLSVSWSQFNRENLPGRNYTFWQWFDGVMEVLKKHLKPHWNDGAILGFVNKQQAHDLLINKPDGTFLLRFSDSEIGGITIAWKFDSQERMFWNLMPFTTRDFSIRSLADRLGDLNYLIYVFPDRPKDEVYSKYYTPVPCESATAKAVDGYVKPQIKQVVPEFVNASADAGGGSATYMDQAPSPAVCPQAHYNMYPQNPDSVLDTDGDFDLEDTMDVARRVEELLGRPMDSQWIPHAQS
# experimental-protocol: FP-based competitive binding assay, STAT5b SH2 domain
# condition-summary: at 80 µM, mean ± s.d., three experiments
The reply must contain the numeric value and, after it, the unit.

Previously resolved entries follow.
O=C(N/N=C/c1coc2ccc(Br)cc2c1=O)c1cccnc1 | 33%
O=C(N/N=C/c1coc2ccc(Cl)cc2c1=O)c1cccnc1 | 31%
CC(C)(C)c1ccc2occ(/C=N/NC(=O)c3cccnc3)c(=O)c2c1 | 32%

With those in mind, consider the next compound.
INPUT: State, for STAT5b SH2 domain (Homo sapiens, UniProt P51692), measured inhibition at 80 µM of the compound listed here: COc1ccc2occ(/C=N/NC(=O)c3cccnc3)c(=O)c2c1
OUTPUT: 30%
